- Tested on: Piricularia oryzae
- Experimental protocol: whole plant or invertebrate
- Type: in vivo
- Condition description: Pyricularia oryzae, read-out: % Control RB, application rate 100 ppm
pest or weed control at 100 ppm: recorded values
Measurement kind: pest or weed control at 100 ppm (%)

CCCCCCCCNC(=O)/C=C\SC(=O)c1ccc(C)cc1C : 0
CCCCCCCCNC(=O)/C=C\SC(=O)C1=CCCCC1 : 90
CCCCCCCCNC(=O)/C=C\SC(=O)CC [Compound 10, N-octyl-cis-3-(propanoylthio)acrylamide] : 80
CCCCCCCCNC(=O)/C=C\SC/C=C/c1ccccc1 : 0
CCCCCCCCNC(=O)/C=C\SC(=O)c1cc(Cl)sc1Cl : 50
CCCCCCCCNC(=O)/C=C\SC(=O)c1c(Cl)cccc1Cl : 0
CCCCCCCCNC(=O)/C=C\SC(=O)c1cc2ccccc2s1 : 0
CCCCCCCCNC(=O)/C=C\SC(=O)c1cccnc1Cl : 50
CCCCCCCCNC(=O)/C=C\SC(=O)C(CC)CCCC (stereo not shown) : 0
CCCCCCCCNC(=O)/C=C\SC(=O)C1CCCCC1 : 80

Value source: patent US5300672A
